# Experimental Target: human tissue factor (TF), membrane-bound on cells (human, UniProt P13726 33-295)
# Experiment: cell-based or functional assay
Measured % max inhibition of FVIIa induced ERK phosphorylation (A431) values are reported for all entries that follow.
Give just the number in %; leave the unit off.

• anti-TF HuMab 003 (antibody, V domains shown, Human monoclonal antibody from HuMab mice; also called HuMab-TF-003) VH: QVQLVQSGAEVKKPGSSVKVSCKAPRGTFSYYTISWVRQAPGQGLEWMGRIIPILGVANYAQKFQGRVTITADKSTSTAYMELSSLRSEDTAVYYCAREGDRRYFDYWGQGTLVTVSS VL: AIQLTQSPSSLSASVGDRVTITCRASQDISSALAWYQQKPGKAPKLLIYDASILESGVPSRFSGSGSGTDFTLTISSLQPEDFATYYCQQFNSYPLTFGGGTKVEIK = 63

Lab note: measured % max inhibition of FVIIa induced ERK phosphorylation (A431) of anti-TF HuMab 044 (antibody, V domains shown, Human monoclonal antibody from HuMab mice) VH: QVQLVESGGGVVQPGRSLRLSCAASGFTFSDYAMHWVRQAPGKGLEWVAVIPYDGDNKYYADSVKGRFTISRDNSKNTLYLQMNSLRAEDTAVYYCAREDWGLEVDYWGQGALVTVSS VL: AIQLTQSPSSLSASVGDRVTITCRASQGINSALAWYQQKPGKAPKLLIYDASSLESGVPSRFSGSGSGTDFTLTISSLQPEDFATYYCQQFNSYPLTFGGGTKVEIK was 45

Lab note: measured % max inhibition of FVIIa induced ERK phosphorylation (A431) of anti-TF HuMab 098 (antibody, V domains shown, Human monoclonal antibody from HuMab mice; also called HuMab-TF-098; HuMab-TF-98) VH: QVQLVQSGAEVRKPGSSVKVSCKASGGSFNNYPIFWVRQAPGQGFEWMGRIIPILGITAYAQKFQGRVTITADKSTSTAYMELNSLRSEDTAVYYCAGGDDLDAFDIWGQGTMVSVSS VL: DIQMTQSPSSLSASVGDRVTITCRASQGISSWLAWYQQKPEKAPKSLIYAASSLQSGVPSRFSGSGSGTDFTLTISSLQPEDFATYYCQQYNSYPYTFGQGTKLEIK was 64

Values from patent US20110300156A1
